assay: Competitive binding affinity to Pseudomonas aeruginosa Alg44 PilZ domain after 5 mins in presence of [32P]-c-di-GMP

structure.smiles | bound.type | IC50, µM
Nc1nc2c(ncn2[C@H]2C[C@@H]3OP(=O)(O)OC[C@H]4O[C@@H](n5cnc6c(=O)[nH]c(N)nc65)C[C@@H]4OP(=O)(O)OC[C@H]3O2)c(=O)[nH]1 | = | 13.4
Nc1nc2c(ncn2[C@@H]2O[C@@H]3COP(=O)(O)O[C@H]4[C@@H](F)[C@H](n5cnc6c(=O)[nH]c(N)nc65)O[C@@H]4COP(=O)(O)O[C@H]3[C@H]2F)c(=O)[nH]1 | = | 3.12
Nc1nc2c(ncn2[C@@H]2O[C@@H]3COP(=O)(O)O[C@H]4[C@@H](O)[C@H](n5cnc6c(=O)[nH]c(N)nc65)O[C@@H]4COP(=O)(O)O[C@H]3[C@H]2O)c(=O)[nH]1 | = | 7.69
CO[C@@H]1[C@@H]2OP(=O)(O)OC[C@H]3O[C@@H](n4cnc5c(=O)[nH]c(N)nc54)[C@H](OC)[C@@H]3OP(=O)(O)OC[C@H]2O[C@H]1n1cnc2c(=O)[nH]c(N)nc21 | > | 100
